Overview of recorded growth inhibition by drug plus 177Lu-lilotomab satetraxetan for various compounds
test system: U-2932; experiment: growth inhibition by drug plus 177Lu-lilotomab satetraxetan (1 - RLU/untreated control) (fraction); higher = stronger inhibition; details: 1000 nM; time (day): 5; 177Lu-lilotomab satetraxetan 1 ug/ml
Structures can show the parent of a compound that is named as a salt.
Number only, no unit.

compound | result number
C[C@H](NC(=O)Cc1cc(F)cc(F)c1)C(=O)N[C@@H]1C(=O)N(C)c2ccccc2-c2ccccc21 | 0.00781
COc1cc(N2CCC(N3CCN(C)CC3)CC2)ccc1Nc1ncc(Cl)c(Nc2ccccc2S(=O)(=O)C(C)C)n1 | 0.325
Cn1c(=O)c(F)c(Nc2ccc(I)cc2F)c2c(=O)n(C[C@@H](O)CO)cnc21 | 0.249

Endpoint output: growth inhibition by drug plus 177Lu-lilotomab satetraxetan of Nc1nc2[nH]cc(CCc3ccc(C(=O)N[C@@H](CCC(=O)O)C(=O)O)cc3)c2c(=O)[nH]1 [Pemetrexed] . Value?
0.97

Request the reported growth inhibition by drug plus 177Lu-lilotomab satetraxetan associated with `COc1ccc(-c2ccc3c(N4CCOCC4)nc(N4C[C@@H](C)O[C@@H](C)C4)nc3n2)cc1CO`
0.361

Form field: reported growth inhibition by drug plus 177Lu-lilotomab satetraxetan of `O=c1cc(-c2cccc3c2Sc2ccccc2S3)oc(N2CCOCC2)c1`
-0.0219

Param item = CC(C)n1c(/C=C/C(O)CC(O)CC(=O)O)c(-c2ccc(F)cc2)c2ccccc21 (stereo not given) [Fluvastatin sodium (Lescol)] ; retrieve measured growth inhibition by drug plus 177Lu-lilotomab satetraxetan.
0.0456

Any idea what its growth inhibition by drug plus 177Lu-lilotomab satetraxetan is? The compound is `O=C(O)Cc1cccc(OCCCN(Cc2cccc(C(F)(F)F)c2Cl)CC(c2ccccc2)c2ccccc2)c1`
0.223

I am curious: what growth inhibition by drug plus 177Lu-lilotomab satetraxetan value has been reported for `CN(C)Cc1c(C(=O)NCCOc2ccc(C(=O)NO)cc2)oc2ccccc12` ?
0.99

growth inhibition by drug plus 177Lu-lilotomab satetraxetan lookup needed for O=C1CN2Cc3c(ccc(Cl)c3Cl)N=C2N1 [Anagrelide hydrochloride] , thanks.
0.102

Any idea what its growth inhibition by drug plus 177Lu-lilotomab satetraxetan is? The compound is COc1cc2nccc(Oc3ccc(NC(=O)NC4CC4)c(Cl)c3)c2cc1C(N)=O [E7080 (Lenvatinib)]
0.0372

# growth inhibition by drug plus 177Lu-lilotomab satetraxetan lookup, item `CN(C)CCOc1ccc(-c2nc(-c3ccncc3)c(-c3ccc4c(c3)CC/C4=N\O)[nH]2)cc1`
0.0638

Which measured growth inhibition by drug plus 177Lu-lilotomab satetraxetan value corresponds to `Cc1cccc(-c2[nH]c(C(C)(C)C)nc2-c2ccc3nccnc3c2)n1` ?
0.126
